- subject_of_test: CYP3A4 (Homo sapiens)
- Sequence (P08684 whole entry): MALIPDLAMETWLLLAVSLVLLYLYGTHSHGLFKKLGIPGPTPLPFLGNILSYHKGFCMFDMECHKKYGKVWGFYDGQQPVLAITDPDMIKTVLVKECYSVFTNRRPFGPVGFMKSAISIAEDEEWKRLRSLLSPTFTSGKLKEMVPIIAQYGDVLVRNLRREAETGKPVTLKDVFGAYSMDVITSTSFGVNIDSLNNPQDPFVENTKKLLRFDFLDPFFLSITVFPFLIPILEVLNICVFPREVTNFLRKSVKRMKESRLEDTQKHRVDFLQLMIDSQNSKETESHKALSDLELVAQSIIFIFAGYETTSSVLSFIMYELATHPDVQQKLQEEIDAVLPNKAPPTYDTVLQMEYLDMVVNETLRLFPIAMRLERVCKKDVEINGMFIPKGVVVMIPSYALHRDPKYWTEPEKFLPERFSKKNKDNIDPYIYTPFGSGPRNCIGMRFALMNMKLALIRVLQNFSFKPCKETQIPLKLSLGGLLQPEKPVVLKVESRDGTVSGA
- test_summary: Inhibition of CYP3A4 in human liver microsomes at 10 uM measured after 20 mins in presence of NADPH by LC/MS/MS analysis relative to control
- Type: ADME
# inhibition at 20 min, 10 µM per record follows
quantity_kind: inhibition at 20 min, 10 µM

>>> assay_value("CC1(C)Oc2cc(-c3cccc(C(F)(F)F)c3)ccc2-c2[nH]c(-c3c(F)cccc3Cl)nc21")
"37%"
>>> assay_value("CC1(C)Oc2cc(-c3cccc(OC(F)(F)F)c3)ccc2-c2[nH]c(-c3c(F)cccc3Cl)nc21")
"8.4%"
>>> assay_value("CC1(C)Oc2cc(C#Cc3cc(Cl)ccc3F)ccc2-c2[nH]c(-c3c(F)cccc3Cl)nc21")
"31%"
>>> assay_value("CC1(C)Oc2cc(C#Cc3ccccc3C(F)(F)F)ccc2-c2nc(-c3c(C#N)cccc3C#N)[nH]c21")
"24%"
